Tested on: CP191
test: qHTS profiling for inhibitors of Plasmodium falciparum proliferation (AID 504749); further: nearly all actives have a fitted effect of over 60% in size
condition_context: P. falciparum in erythrocytes, SYBR Green DNA, 72 h; series mostly up to 28.7 µM
Results filed as inconclusive are left out. Activity calls are given as the source filed them. The call rests on the fitted dose curve; in most records, active means well fitted inhibition curve with a large enough effect; inconclusive means small, poorly fitted or top-dose-only effect; inactive means flat fitted curve, though single readings scatter.
Please reply with one of these outcomes: active, inactive

Examples from the recorded data:
- Cc1cc(=O)oc2cc(O)ccc12: inactive
- COc1cc2c(cc1OC)C1CC(=O)C(CC(C)C)CN1CC2 (stereo not given): inactive
- CCOC(=O)c1c(C)n(C)c2ccc(O)cc12: inactive

## Input Entry `Cc1c(C(=O)NN2CCCCC2)nn(-c2ccc(Cl)cc2Cl)c1-c1ccc(Cl)cc1` : call = ?
## Output active

## Input So what was the verdict on CCN(CCO)CCCC(C)Nc1ccnc2cc(Cl)ccc12 (stereo not given) in this test?
## Output inactive

---

Give measured parasite growth remaining, % of DMSO control (lower = more inhibition) for each item. Keep answers brief.
test: qHTS profiling of the MIPE4 collection as inhibitors of Plasmodium falciparum (DD2) proliferation (AID 743345)
condition_context: P. falciparum Dd2 in erythrocytes, SYBR Green DNA, 72 h; at 28.5 µM (top of the series) unless noted
Answers are plain numbers, in %.

Look over these answered cases.
* COc1cc2nc(N3CCN(C(=O)C4CCCO4)CC3)nc(N)c2cc1OC (stereo not given) | 76.4
* COC(=O)N[C@H](C(=O)N[C@@H](Cc1ccccc1)[C@@H](O)CN(Cc1ccc(-c2ccccn2)cc1)NC(=O)[C@@H](NC(=O)OC)C(C)(C)C)C(C)(C)C | 18.2

For every record below, what is its parasite growth remaining, % of DMSO control (lower = more inhibition)?
1. N=C(N)c1ccc2cc(OC(=O)c3ccc(N=C(N)N)cc3)ccc2c1
2. CCOc1cc(CC(=O)N[C@@H](CC(C)C)c2ccccc2N2CCCCC2)ccc1C(=O)O
3. COCCCN1CCC(NC(=O)c2cc(Cl)c(N)c3c2OCC3)CC1

## Output
[9.8, 123, 51.1]

---

test: Quantitative High-Throughput drug screen in 47 multiple myeloma cell lines against the NCATS MIPE library collection: KHM11_PLB cell viability assay (AID 1918962); further: nearly all actives have a fitted effect of over 35% in size
condition_context: KHM11 myeloma cell viability, CellTiter-Glo ATP luminescence, 48 h; series mostly up to 45.8 µM
Records with an inconclusive call do not appear. Active and inactive are the calls of the source. Calls follow the shape of the dose curve; as a rule, active = well fitted cell-killing curve with a large enough effect; inconclusive = small, poorly fitted or top-dose-only effect, or effect the other way; inactive = no such curve, though single readings can be large or run the other way.
Hi! Could you answer with just one of these? class 1 (active), class 0 (inactive)

Solved entries:
* COCCCOc1ccnc(CS(=O)c2nc3ccccc3[nH]2)c1C (configuration not stated) | class 0
* CN(C)C(=O)COC(=O)Cc1ccc(OC(=O)c2ccc(N=C(N)N)cc2)cc1 | class 1
* COc1c(O)cc2c(c1O)[C@@H]1O[C@H](CO)[C@@H](O)[C@H](O)[C@H]1OC2=O | class 0
* O=C(OC1C[C@H]2CC[C@@H](C1)[N+]21CCCC1)C(O)(c1ccccc1)c1ccccc1 (some centres not stated) | class 0
* Cc1cccc(C)c1OCC(=O)N[C@@H](Cc1ccccc1)[C@@H](O)C[C@H](Cc1ccccc1)NC(=O)[C@H](C(C)C)N1CCCNC1=O | class 0
* CCCCC(CC)COC(=O)C(C#N)=C(c1ccccc1)c1ccccc1 (configuration not stated) | class 0
* CCC[C@@H]1C[C@@H](C(=O)N[C@@H]([C@H]2O[C@H](SC)[C@H](O)[C@@H](O)[C@H]2O)[C@@H](C)O)N(C)C1 | class 0
* Nc1nc(OCc2ccccc2)c2[nH]cnc2n1 | class 0

## Input Just curious, what result did `CC1(C)NC(=O)N(c2ccc([N+](=O)[O-])c(C(F)(F)F)c2)C1=O` get here?
## Output class 0

## Input Hello, I am checking results. What call was entered for `O=P(O)(O)C(O)(Cn1ccnc1)P(=O)(O)O` ?
## Output class 0

## Input Lab log entry: `CNC[C@H](O)c1ccc(O)c(O)c1` — outcome as called in the assay?
## Output class 0

## Input Hi team, can someone confirm the assay call for `CN(C)c1ccc2nc3ccc(=[N+](C)C)cc-3sc2c1` ?
## Output class 1

## Input Please let me know the test result on file for CCC1=C(C)CN(C(=O)NCCc2ccc(S(=O)(=O)NC(=O)NC3CCC(C)CC3)cc2)C1=O (configuration not stated) .
## Output class 0

---

test_target: Alpha-galactosidase A (Homo sapiens)
test: Counterscreen for Glucocerebrosidase Inhibitors: qHTS Assay for Human alpha-Galactosidase at pH 4.5 (AID 992); further: 0% is about no effect
condition_context: purified enzyme, fluorogenic substrate; series mostly up to 76.9 µM
Activity calls are given as the source filed them. Calls come from the whole dose curve; as a rule, active = well fitted curve in the direction sought with a large enough effect; inactive = no such curve, though single readings can be large or run the other way.
metric_name: outcome

* O=C1NC(=O)C(c2ccccc2[N+](=O)[O-])=C1Nc1ccc(O)c(Cl)c1 | inactive
* Nc1nc(OCc2ccccc2)c2[nH]cnc2n1 | inactive
* O=c1c(O)c(-c2ccc(O)cc2O)oc2cc(O)cc(O)c12 | inactive
* O=Nc1c(-c2c(O)[nH]c3cc(Br)ccc23)[nH]c2ccccc12 | inactive
* COc1ccccc1N1CCN(CCN(C(=O)C2CCCCC2)c2ccccn2)CC1 | inactive
* O=C(O)c1cccnc1Nc1cccc(C(F)(F)F)c1 | inactive

Please look at the items below and tell me outcome for each one, in order.
1. CC1(C)C(=O)N(CCN2CCC(C(=O)c3ccc(F)cc3)CC2)c2ccccc21
2. O=c1cc(N2CCOCC2)oc2c(-c3ccccc3)cccc12
3. O=c1c(O)c(-c2cc(O)c(O)c(O)c2)oc2cc(O)cc(O)c12
4. Cc1cccc(C#Cc2ccccc2)n1
5. CC(=O)N1CCN(c2ccc(OC[C@H]3CO[C@](Cn4ccnc4)(c4ccc(Cl)cc4Cl)O3)cc2)CC1
6. Oc1ccc(-c2nc(-c3ccc(F)cc3)c(-c3ccncc3)[nH]2)cc1
7. NCCCCNCCCN

## Output
1. inactive
2. inactive
3. inactive
4. inactive
5. inactive
6. inactive
7. inactive

// each listed compound needs a value for outcome
1. CC1(C)NC(=O)N(c2ccc([N+](=O)[O-])c(C(F)(F)F)c2)C1=O
2. Cc1cc(O)c2c(c1)C(=O)c1cc(O)cc(O)c1C2=O
3. O=C1c2ccccc2-c2n[nH]c3cccc1c23
4. Cc1nc2n(c(=O)c1CCN1CCC(c3noc4cc(F)ccc34)CC1)CCCC2

## Output
1. inactive
2. inactive
3. inactive
4. inactive

---

Please provide measured max response for the entries that follow.
test: qHTS Assay for Identifying Gametocytocidal Compounds (AID 743244);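 further: on the % scale 0 is the no-effect control and ±100 the full control effect; actives lower the fluorescent signal which means gametocytes are killed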
condition_context: P. falciparum 3D7 stage III-V gametocytes, alamarBlue, 72 h; stronger effect = lower value
Inconclusive results are not listed.
Give bare numbers, in %.

• CCC1=C(C)CN(C(=O)NCCc2ccc(S(=O)(=O)NC(=O)NC3CCC(C)CC3)cc2)C1=O (centres undefined) = 36.8
• Cc1ncc([N+](=O)[O-])n1CC(C)O (centres undefined) = 9.98
• Cc1ccc(S(=O)(=O)NC(=O)NN2CC3CCCC3C2)cc1 (centres undefined) = 2.23
• CCCCCCCCCCCCCCCCCCCCCCO = 23
• c1cnc2cc3c(cc2n1)C1CNCC3C1 = -11.9

Quick request: max response for each listed item, please.
1. O=C1CCc2ccc(OCCCCN3CCN(c4cccc(Cl)c4Cl)CC3)cc2N1
2. Cc1cc(=O)c2c(O)c3c(O)cc(=O)c4c3c3c(cc(O)c1c23)C(C)(C)C=4O
3. COC(=O)N[C@H](C(=O)N[C@@H](Cc1ccccc1)[C@@H](O)CN(Cc1ccc(-c2ccccn2)cc1)NC(=O)[C@@H](NC(=O)OC)C(C)(C)C)C(C)(C)C
4. CCOC(=O)C1=C(O)C(=O)N(Cc2ccccc2)C1
5. CC(=O)NC[C@H]1CN(c2ccc(N3CCOCC3)c(F)c2)C(=O)O1

## Output
0.257
-6.69
-11.7
44.6
1.95

---

System: AA1029
test: qHTS profiling for inhibitors of Plasmodium falciparum proliferation (AID 504749); further: nearly all actives have a fitted effect of over 60% in size; further: potency means the concentration at half of the fitted maximal effect
condition_context: P. falciparum in erythrocytes, SYBR Green DNA, 72 h; series mostly up to 28.7 µM
Records with an inconclusive call do not appear. The source made the active and inactive calls. Calls come from the whole dose curve; as a rule, active = well fitted inhibition curve with a large enough effect; inconclusive = small, poorly fitted or top-dose-only effect; inactive = flat fitted curve, though single readings scatter.
metric_name: Potency

Example results:
* COc1ccc2cc([C@H](C)C(=O)O)ccc2c1 | inactive
* O=c1oc2cc(O)ccc2s1 | inactive
* CNC[C@H](O)c1ccc(O)c(O)c1 | inactive
* O=C(OC1C[C@H]2CC[C@@H](C1)[N+]21CCCC1)C(O)(c1ccccc1)c1ccccc1 (some centres not stated) | 2510 nM (active)
* Nc1cc(C(Cl)=C(Cl)Cl)c(S(N)(=O)=O)cc1S(N)(=O)=O | inactive

Batch request: Potency for each of the following molecules.
1. Cn1c(NCCN(CCO)CCCc2ccc([N+](=O)[O-])cc2)cc(=O)n(C)c1=O
2. Cc1c(OCC(F)(F)F)ccnc1CS(=O)c1nc2ccccc2[nH]1 (configuration not stated)
3. COc1cc2c(cc1OC)C1CC(=O)C(CC(C)C)CN1CC2 (configuration not stated)
4. O=C(O)c1cc(=O)c2c(OCC(O)COc3cccc4oc(C(=O)O)cc(=O)c34)cccc2o1
5. Cc1cc(=O)c2c(O)c3c(O)cc(=O)c4c3c3c(cc(O)c1c23)C(C)(C)C=4O
6. CCCCc1ccc2nc(NC(=O)OC)[nH]c2c1
7. CC(S)C(=O)NCC(=O)O (configuration not stated)

## Output
1. inactive
2. inactive
3. inactive
4. inactive
5. 1780 nM (active)
6. inactive
7. inactive
